Measured normalized growth by item
Assay: chemical genetic growth profiling, strain panel (AID 1159580);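 note: tested at 20 µM; growth read once vehicle control cultures reached saturation at 30 °C; 1 = growth at the plate median or of vehicle wells; lower values mean less growth of the strain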
Conditions: S. cerevisiae deletion strains, growth OD, locus YNL006W, strain LST8, active compounds read low
About 2,000 (36%) of roughly 5,500 compounds were called active. Inconclusive results (about 18%) are left out. This is one part of the list.
Please respond with just the number, no unit label.

O=C(Nc1ccc(Cl)cc1)c1csc([N+](=O)[O-])c1    0.921
NNC(=O)COc1ccc(C2SCCS2)cc1    0.945
O=C(SCc1c(Cl)cccc1Cl)c1ccc([N+](=O)[O-])o1    0.976
CC(NC(=S)Nc1ccc(Oc2ccc(Cl)cc2)cc1)c1ccccc1 (centres undefined)    0.965
COC(=O)c1ccc(Oc2c(C(F)(F)F)oc3cc(O)ccc3c2=O)cc1    0.972

# get_value(readout='normalized growth', item= "O=C(Oc1ccc(C2SCCS2)cc1)c1cccs1" )
1

# get_value(readout='normalized growth', item= "N#CC(C#N)=NNc1ccc(-n2ccc(C(F)(F)F)n2)cc1" )
0.914
